test: Pharmacokinetic study of Compound A alone and in combination with Indinavir in healthy human males (Example 11); format: in vivo; conditions: male, human, plasma, po, 600 mg, 600 mg (tablets) single oral dose, sulfate salt, fasted, n=8; arithmetic mean
metricName: Tmax
Answer with the figure and its unit, nothing else.

Request: // Tmax lookup, key: CC(C)(C)NC(=O)[C@@H]1CN(Cc2cc3ccccc3o2)CCN1C[C@@H](O)C[C@@H](Cc1ccccc1)C(=O)N[C@H]1c2ccccc2C[C@H]1O [Compound A]
Response: 1.5 h

* * *

assay: Pharmacokinetic study of Compound A alone and in combination with Indinavir in healthy human males (Example 11); format: in vivo; conditions: male, human, plasma, po, 600 mg, 600 mg single oral dose, suspension of sulfate salt, fasted, n=8; plasma 8 hours after dosing; read-out: C8 hrs
metricName: concentration at 8 h (nM)
Dear colleague, please return just the value in nM, with no unit written.

Request: // concentration at 8 h lookup, key: `CC(C)(C)NC(=O)[C@@H]1CN(Cc2cc3ccccc3o2)CCN1C[C@@H](O)C[C@@H](Cc1ccccc1)C(=O)N[C@H]1c2ccccc2C[C@H]1O`
Response: 55

* * *

assay: Pharmacokinetic study of Compound A in healthy human males (Example 10); type: in vivo; conditions: male, plasma, po, 400 mg, 400 mg w/food, single oral dose, suspension of sulfate salt, mean of 6 subjects (CV %)
metricName: Cmax (µM)
Dear colleague, please return just the value in µM, with no unit written.

Request: // Cmax lookup, key: CC(C)(C)NC(=O)[C@@H]1CN(Cc2cc3ccccc3o2)CCN1C[C@@H](O)C[C@@H](Cc1ccccc1)C(=O)N[C@H]1c2ccccc2C[C@H]1O [Compound A]
Response: 0.17

* * *

experiment: Pharmacokinetic study of Compound A alone and in combination with Indinavir in healthy human males (Example 11); assay type: in vivo; details: male, human, plasma, po, 200 mg Compound A + 1200 mg IDV (Indinavir) co-administered, single oral dose, fasted, n=6; arithmetic mean
metricName: Cmax (nM)
Dear colleague, please return just the value in nM, with no unit written.

Request: // Cmax lookup, key: CC(C)(C)NC(=O)[C@@H]1CN(Cc2cc3ccccc3o2)CCN1C[C@@H](O)C[C@@H](Cc1ccccc1)C(=O)N[C@H]1c2ccccc2C[C@H]1O [Compound A]
Response: 1560

* * *

experiment: Pharmacokinetic study of Compound A in combination with Indinavir with and without fasting (Example 12); type: in vivo; conditions: male, human, plasma, oral, 600 mg Compound A (tablets) + 666 mg IDV (Indinavir), fed (high-fat breakfast), n=7; plasma 12 hours after dosing; read-out: C12 hrs
metricName: concentration at 12 h (nM)
Dear colleague, please return just the value in nM, with no unit written.

Request: // concentration at 12 h lookup, key: `CC(C)(C)NC(=O)[C@@H]1CN(Cc2cc3ccccc3o2)CCN1C[C@@H](O)C[C@@H](Cc1ccccc1)C(=O)N[C@H]1c2ccccc2C[C@H]1O`
Response: 433

* * *

assay: Pharmacokinetic study of Compound A in healthy human males (Example 10); type: in vivo; settings: male, plasma, po, 400 mg, 400 mg single oral dose, suspension of sulfate salt, fasted, plasma 8 hours after dosing, CV not determinable, read-out: C8 hrs
metricName: concentration at 8 h (nM)
Dear colleague, please return just the value in nM, with no unit written.

Request: // concentration at 8 h lookup, key: `CC(C)(C)NC(=O)[C@@H]1CN(Cc2cc3ccccc3o2)CCN1C[C@@H](O)C[C@@H](Cc1ccccc1)C(=O)N[C@H]1c2ccccc2C[C@H]1O`
Response: 15
